The entries below are paired with their reported TGI.
# Tested on: LOX IMVI melanoma
# assay-info: NCI tumour cell line growth inhibition, 48 h

Cn1c(=O)c2[nH]c(Nc3ccccc3)nc2n(C)c1=O; > 10 µM
Nc1ncnc2c1ncn2C1OC(CO)C(O)C1O (stereo unspecified); > 450 µM
c1ccc(C[P+]2(c3ccccc3)CCCCC2)cc1; > 100 µM
Cc1cccc2c1NC(c1c(C)[nH]c3ccccc13)C2 (stereo unspecified); > 100 µM
Nc1nc(-c2ccccc2)cc(-c2ccc(F)cc2)c1-c1ccc(Cl)cc1; > 100 µM

Read the next record carefully.
Query: Dear colleague, I am looking for the recorded TGI of the following compound: `O=C(OCc1ccccc1[N+](=O)[O-])N1c2ccccc2[C@@]23O[C@]24CCC[C@H]3C#C/C=C\C#C[C@H]14`
Result: > 100 µM

---

# System: OVCAR-5 ovarian
# assay-info: NCI tumour cell line growth inhibition, 48 h
experimental-endpoint: TGI

// solved cases for TGI follow
COC(=O)c1ccc2c(c1)CCN2C(=O)c1cc2c(cc1Br)OCO2; > 50 µM
Cc1cc(CC(O)(C(F)(F)F)C(F)(F)F)cc(CC(O)(C(F)(F)F)C(F)(F)F)n1; 19.2 µM
C(=C/c1ccc2nc(-c3ccc(/C=C/C=N/NC4=NCCCN4)cc3)cn2c1)/C=N/NC1=NCCCN1; > 100 µM
O=C1N2CCN=C2c2ccccc2C1(O)c1ccccc1 (stereo not drawn); > 100 µM
Cc1cc(C)c2nc(Nc3nc(C)c(C)c(=O)[nH]3)nc(C)c2c1; 18.5 µM

Query: Dear colleague, I am looking for the recorded TGI of the following compound: `COc1cc(Oc2cnc3cc(N)cc(N)c3n2)cc(OC)c1OC`
Result: 62.6 µM

Query: Dear colleague, I am looking for the recorded TGI of the following compound: `COc1ccc(-n2cc(-c3ccc(Cl)cc3)[nH]c2=S)cc1Cl`
Result: > 100 µM

Query: Dear colleague, I am looking for the recorded TGI of the following compound: `CS(=O)(=O)c1ccc(C2=C(c3ccccc3)C(=O)OC2)cc1`
Result: > 100 µM

---

# System: CCRF-CEM leukemia
# assay-info: NCI tumour cell line growth inhibition, 48 h
experimental-endpoint: TGI

COC(=O)C1=C(O)C(C(=O)OC)[C@@]2(O)[C@@H](C(=O)OC)C(c3ccc(OC(=O)C(Cc4ccccc4)NC(C)=O)cc3)C[C@@H]1[C@@H]2C(=O)OC (stereo not given in full); > 100 µM
N#CC1(Cc2ccccc2Cl)c2ccccc2C=CN1C(=O)c1ccccc1 (stereo not given); > 100 µM
COc1ccc(C2CC(c3cccc(Nc4ccnc5cc(Cl)ccc45)c3)=NN2c2ccccc2)cc1 (stereo not given); 37.9 µM
Nc1nc(-c2ccccc2)cc(-c2ccc(F)cc2)c1-c1ccc(Cl)cc1; > 100 µM
NC(=O)c1ccc(N)nc1; 394 µM

Query: Dear colleague, I am looking for the recorded TGI of the following molecule: COC1=C(C(=O)OC(C)(C)C)C23CCCCC2(C(C(=O)OC(C)(C)C)=C(OC)C3C(=O)OC(C)(C)C)C1C(=O)OC(C)(C)C (stereo not given)
Result: > 100 µM

Query: Dear colleague, I am looking for the recorded TGI of the following molecule: `N.N.NCCCCN.O=C([O-])CCl.O=C([O-])CCl.O=C([O-])CCl.O=C([O-])CCl.[Pt+4].[Pt+4]`
Result: > 50 µM

Query: Dear colleague, I am looking for the recorded TGI of the following molecule: O=C(O)C(C1NCCS1)N1Cc2ccccc2C1 (stereo not given)
Result: > 100 µM

Query: Dear colleague, I am looking for the recorded TGI of the following molecule: `CCOc1cccc2cccnc12`
Result: > 100 µM

Query: Dear colleague, I am looking for the recorded TGI of the following molecule: `Cc1c(Br)cccc1NC(=O)c1sc2nc3c(cc2c1N)CN(Cc1ccccc1)CC3`
Result: > 50 µM

---

# System: A549 NSCLC
# assay-info: NCI tumour cell line growth inhibition, 48 h
experimental-endpoint: TGI

// solved cases for TGI follow
CCCCCc1c(C)[nH]c(/C=C2\N=C(c3ccc[nH]3)C=C2Oc2ccc(OC)cc2)c1C; 0.165 µM
COC(=O)C1=C(O)C(C(=O)OC)[C@@]2(O)[C@@H](C(=O)OC)C(c3ccc(OC(=O)C(Cc4ccccc4)NC(C)=O)cc3)C[C@@H]1[C@@H]2C(=O)OC (stereo partly drawn); 57.5 µM
CCCCCCCCOCC(O)COC (stereo not drawn); > 100 µM

Query: Dear colleague, I am looking for the recorded TGI of the following compound: COc1ncn(C2C=C(CO)C(O)C2O)c(=O)n1 (stereo not drawn)
Result: > 100 µM

Query: Dear colleague, I am looking for the recorded TGI of the following compound: `Cc1c(Br)cccc1NC(=O)c1sc2nc3c(cc2c1N)CN(Cc1ccccc1)CC3`
Result: 19.6 µM

---

# System: MCF7 breast
# assay-info: NCI tumour cell line growth inhibition, 48 h
experimental-endpoint: TGI

Query: Dear colleague, I am looking for the recorded TGI of the following compound: NC1=CN2c3ccccc3N(CC(=O)N3CCOCC3)C2C=C1 (configuration not stated)
Result: > 100 µM

Query: Dear colleague, I am looking for the recorded TGI of the following compound: `COc1cccc(-n2cnc3c(N/N=C/c4ccncc4)ncnc32)c1`
Result: > 25 µM

Query: Dear colleague, I am looking for the recorded TGI of the following compound: `O=C1NC(N2CCOCC2)=N/C1=C\c1ccccc1`
Result: > 100 µM

Query: Dear colleague, I am looking for the recorded TGI of the following compound: `N#CCCN(CCN(CCN(C(=O)Nc1ccccc1)c1ccccc1)C(=O)Nc1ccccc1)C(=O)Nc1ccccc1`
Result: > 100 µM

---

The entries below are paired with their reported TGI.
# Test system: DU-145 prostate
# assay-info: NCI tumour cell line growth inhibition, 48 h

// solved cases for TGI follow
CCOC(=O)n1c2ccccc2c2c(O)c(OC)c3c(c21)C(=O)NC3=O; > 100 µM
Cn1c(=O)c2[nH]c(Nc3ccccc3)nc2n(C)c1=O; > 10 µM
S=c1sc2ccccc2n1CN1CCN(Cc2ccccc2)CC1; > 100 µM

Query: Give the reported TGI for O=C1OS2(OC(=O)c3cccc4cccc2c34)c2ccccc21 (configuration not stated) (system: DU-145 prostate).
Result: > 100 µM

Query: Give the reported TGI for `CC(C)n1c2c(c3ccccc3c1=O)C(=O)c1ccccc1-2` (system: DU-145 prostate).
Result: > 100 µM

---

The entries below are paired with their reported TGI.
# Test system: IGROV1 ovarian
# assay-info: NCI tumour cell line growth inhibition, 48 h

// solved cases for TGI follow
Nc1nc(Cl)cc2c1ncn2C1OC(CO)C(O)C1O (stereo not drawn); > 100 µM
NC(=O)c1ncn(C2CCC(CP(=O)(O)O)C2)c1N (stereo not drawn); > 100 µM

Query: Dear colleague, I am looking for the recorded TGI of the following compound: `COC1=C(NC(C)=O)C(=O)c2nc3n(c2C1=O)CCC3`
Result: 35.6 µM

Query: Dear colleague, I am looking for the recorded TGI of the following compound: `C=C1CN(C(=O)c2cc3cc(OC)c(OC)c(OC)c3[nH]2)c2cc([N+](=O)[O-])ccc21`
Result: > 100 µM

Query: Dear colleague, I am looking for the recorded TGI of the following compound: `COc1ccc(OC)c(-c2cc(-c3ccc(Cl)cc3)nn2-c2ccc(S(N)(=O)=O)cc2)c1`
Result: > 100 µM

Query: Dear colleague, I am looking for the recorded TGI of the following compound: `CCCCC(=O)Nc1ccc2cc(C(=O)OC)c(=O)[nH]c2n1`
Result: > 100 µM

Query: Dear colleague, I am looking for the recorded TGI of the following compound: CC(C)=CCNc1ncnc2c1ncn2C1OC(COP(=O)(O)O)C(O)C1O (stereo not drawn)
Result: > 100 µM

Query: Dear colleague, I am looking for the recorded TGI of the following compound: `O=C(CCCCCn1c2ccccc2c2c3c(c4c5ccccc5[nH]c4c21)C(=O)N(O)C3=O)N1CCOCC1`
Result: 4.92 µM

Query: Dear colleague, I am looking for the recorded TGI of the following compound: COC1=CC(=O)c2c(O)c3c(c(O)c2C1=O)CC(C)(O)OC3 (stereo not drawn)
Result: 7.94 µM

---

# System: DMS 114 small cell lung
# assay-info: NCI tumour cell line growth inhibition, 48 h
experimental-endpoint: TGI

// solved cases for TGI follow
COc1ccc(-c2cc(-c3ccco3)c(C#N)c(=O)n2C2OC(OC(=O)c3ccccc3)C(OC(=O)c3ccccc3)C2OC(=O)c2ccccc2)cc1 (stereo not drawn); > 100 µM
c1cc(C2O[C@H]3CCCN3[C@@H]2c2ccncc2)ccn1 (stereo partly drawn); > 100 µM

Read the next record carefully.
Query: Dear colleague, I am looking for the recorded TGI of the following compound: `COc1ccccc1NC(=O)CC(=O)NNCC(=O)Nc1nc(-c2ccccc2)cs1`
Result: > 100 µM
